assay: qHTS assay to test for compound auto fluorescence at 460 nm (blue) in HEK293 cells (AID 720678); conditions: blue autofluorescence 405/460 nm; series mostly up to 91.3 µM
Activity calls are given as the source filed them. The call rests on the fitted dose curve; in most records, active means well fitted curve in the direction sought with a large enough effect in the repeat runs; inconclusive means weak or mixed curves; inactive means flat fitted curve, though single readings scatter.
property-name: fluorescence, % of triamterene

Answered cases to consult:
{"columns": ["molecule", "fluorescence, % of triamterene"],
 "data": [
  ["O=C1c2c(O)ccc(Nc3ccc(CCO)cc3)c2C(=O)c2c([N+](=O)[O-])ccc(O)c21", "inactive"],
  ["CCCCCOC(=O)CCCC", "inactive"],
  ["O=C(c1ccc(O)cc1O)c1ccc(O)cc1O", "inactive"],
  ["CCCN(CCC)C(=O)C(CCC(=O)OCCCN1CCN(CCOC(=O)Cc2c(C)n(C(=O)c3ccc(Cl)cc3)c3ccc(OC)cc23)CC1)NC(=O)c1ccccc1 (centres undefined)", "inactive"]
]}

stdin: Annotate the molecule CC(=O)N1CCN(c2ccc(OC[C@H]3CO[C@](Cn4ccnc4)(c4ccc(Cl)cc4Cl)O3)cc2)CC1 with its measured fluorescence, % of triamterene.
stdout: inactive

stdin: Please give measured fluorescence, % of triamterene of the following entry: CS(=O)(=O)CCNCc1ccc(-c2ccc3ncnc(Nc4ccc(OCc5cccc(F)c5)c(Cl)c4)c3c2)o1
stdout: inactive

----------
target: Estrogen receptor (Homo sapiens) (UniProt P03372); test: qHTS assay to identify small molecule antagonists of the estrogen receptor alpha (ER-alpha) signaling pathway (AID 743069); conditions: HEK293 ER-alpha-UAS-bla, beta-lactamase ratio, antagonist mode; series mostly up to 69.4 µM
Sequence (P03372 whole entry, looked up): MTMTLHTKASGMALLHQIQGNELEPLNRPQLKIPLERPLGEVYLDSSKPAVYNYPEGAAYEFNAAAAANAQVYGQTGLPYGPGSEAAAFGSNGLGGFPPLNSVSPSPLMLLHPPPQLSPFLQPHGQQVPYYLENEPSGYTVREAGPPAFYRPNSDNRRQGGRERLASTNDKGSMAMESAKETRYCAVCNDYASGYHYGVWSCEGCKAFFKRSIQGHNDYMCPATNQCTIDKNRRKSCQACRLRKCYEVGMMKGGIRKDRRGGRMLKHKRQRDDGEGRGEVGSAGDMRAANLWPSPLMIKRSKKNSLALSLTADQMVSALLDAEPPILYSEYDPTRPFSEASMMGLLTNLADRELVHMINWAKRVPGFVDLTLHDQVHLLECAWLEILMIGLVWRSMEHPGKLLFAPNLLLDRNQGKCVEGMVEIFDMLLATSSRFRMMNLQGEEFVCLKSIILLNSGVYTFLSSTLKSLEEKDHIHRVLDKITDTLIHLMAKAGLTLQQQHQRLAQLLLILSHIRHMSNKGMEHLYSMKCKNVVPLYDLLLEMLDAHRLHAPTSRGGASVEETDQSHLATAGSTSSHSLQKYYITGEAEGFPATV
Active and inactive are the calls of the source. The call rests on the fitted dose curve; in most records, active means well fitted curve in the direction sought with a large enough effect in the signal ratio in the repeat runs (not every such curve was filed as active); inconclusive means weak or mixed curves, or effect the other way; inactive means no such curve, though single readings can be large or run the other way; the % refers to the signal ratio.
Hi there, use one of these labels in your reply, thanks! true (active), false (inactive)

stdin: Short answer needed: outcome of this test for O=Cc1cc(O)ccc1Br ?
stdout: false

stdin: Look up the recorded call for NNC(=O)c1cccc(C(=O)NN)c1 in this test.
stdout: false

stdin: What did this assay record as the result for CC(C)(C)C(=O)OCOC(=O)C1N2C(=O)CC2S(=O)(=O)C1(C)C (stereo not drawn) ?
stdout: true

stdin: Which outcome was assigned to CCCCCOC(=O)CCCC in this test?
stdout: false

stdin: Outcome logged for COCCCC/C(=N\OCCN)c1ccc(C(F)(F)F)cc1 in this assay:
stdout: false

stdin: How was O=C(Oc1cccc2cccnc12)c1ccccc1 classified in this test?
stdout: false

stdin: What did the test return for O=CC=C(c1ccccc1)c1ccccc1 ?
stdout: true

stdin: Please share the test call associated with CCN(CCC#N)c1ccc(N=Nc2c(Cl)cc([N+](=O)[O-])cc2Cl)cc1 .
stdout: false

stdin: Hi, do you know how COc1ccc(-c2ccc3cc(C(=O)O)ccc3c2)cc1C12CC3CC(CC(C3)C1)C2 came out in this test?
stdout: true

stdin: How did this test come out for NC(=O)NS(=O)(=O)c1ccc(N)cc1 ?
stdout: false

stdin: Hi, do you know how CSc1ccc(C(=O)c2[nH]c(=O)[nH]c2C)cc1 came out in this test?
stdout: false

stdin: Could you kindly confirm the outcome this assay logged for CNC(=O)c1ccccc1 ?
stdout: false

stdin: What did the test return for O=C(c1ccc(O)cc1O)c1ccc(O)cc1O ?
stdout: false

----------
biological target: Nuclear receptor subfamily 1 group I member 3 (Homo sapiens) (UniProt Q14994); test: qHTS assay to identify small molecule agonists of the constitutive androstane receptor (CAR) signaling pathway (AID 1224839); settings: HepG2 hCAR CYP2B6-luciferase, agonist mode, 24 h; series mostly up to 92.4 µM; further: nearly all actives have a fitted effect of over 15% in size;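 on activation: HepG2 cells stably carrying human CAR and a CYP2B6 luciferase reporter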
Sequence (Q14994 whole entry, looked up): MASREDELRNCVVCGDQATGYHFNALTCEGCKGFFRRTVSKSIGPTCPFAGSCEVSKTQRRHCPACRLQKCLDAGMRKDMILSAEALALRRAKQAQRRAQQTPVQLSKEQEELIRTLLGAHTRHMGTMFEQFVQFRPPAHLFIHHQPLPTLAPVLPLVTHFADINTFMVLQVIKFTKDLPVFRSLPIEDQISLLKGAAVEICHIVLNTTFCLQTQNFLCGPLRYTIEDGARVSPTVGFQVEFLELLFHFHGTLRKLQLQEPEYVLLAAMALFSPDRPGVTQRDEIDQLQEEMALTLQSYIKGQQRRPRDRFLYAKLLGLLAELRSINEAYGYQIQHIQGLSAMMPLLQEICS
Records with an inconclusive call do not appear. Active and inactive are the calls of the source. Calls follow the shape of the dose curve; as a rule, active = well fitted activation curve with a large enough effect in the repeat runs; inconclusive = weak or mixed curves; inactive = no such curve, though single readings can be large or run the other way.
The reply should name one outcome from True = active, False = inactive

stdin: Which outcome did this test record for the compound OC1(c2ccc(Cl)c(C(F)(F)F)c2)CCN(CCCC(c2ccc(F)cc2)c2ccc(F)cc2)CC1 ?
stdout: False

stdin: Answer briefly: the call reported for CCCN(CCC)c1c([N+](=O)[O-])cc(C(F)(F)F)c(N)c1[N+](=O)[O-] in this assay.
stdout: True

stdin: Assay result, entry CCC1OCC(COc2ccc(Oc3ccccc3)cc2)O1 (stereo unspecified) — outcome?
stdout: True

stdin: Per the records of this test, what outcome belongs to CCc1cc(SCc2sc(-c3ccc(C(F)(F)F)cc3)nc2CN2CCN(c3ccc(OC)cc3)CC2)ccc1OCC(=O)O ?
stdout: False

stdin: Assay outcome for O=C1CCCCCN1SSN1CCCCCC1=O : what was it?
stdout: False

stdin: Check the results log: what was the call for CCCCCCCC[N+](CCCCCCCC)(CCCCCCCC)CCCCCCCC ?
stdout: False

stdin: Hey, what did the test say about O=C(O)c1cc(O)c2c(c1)C(=O)c1cccc(O)c1C2=O ?
stdout: False

stdin: Would you mind telling me which call this test gave CSc1ccc2c(c1)C(N1CCN(C)CC1)Cc1ccccc1S2 (stereo unspecified) ?
stdout: False

stdin: Recorded test call requested for O=c1[nH]cnc2nc[nH]c12
stdout: False

stdin: Dear all, I need the recorded test outcome for CCCCCCCC/C=C/CCCCCCCC1=NCCN1CCO , thank you.
stdout: False

stdin: Record request — test call for CCC(C)(C)C1CCCCC1OC(C)=O (stereo unspecified)
stdout: False

----------
assay: qHTS assay to identify small molecule agonists of the estrogen receptor beta (ER-beta) signaling pathway - cell viability counter screen (AID 1259380); settings: ER-beta-bla HEK293T viability, CellTiter-Glo luminescence, 16 h; series mostly up to 92.4 µM; further: nearly all actives have a fitted effect of over 30% in size
Results filed as inconclusive are left out. Calls of active or inactive are those of the source. The call rests on the fitted dose curve; in most records, active means well fitted cell-killing curve with a large enough effect in the repeat runs; inconclusive means weak or mixed curves, or effect the other way; inactive means flat fitted curve, though single readings scatter.
Tick one outcome: YES = active, NO = inactive

stdin: How did this test come out for CCCCCCC[N+](CC)(CC)CCCCc1ccc(Cl)cc1 ?
stdout: YES

stdin: Record lookup: outcome of this test for C[C@@H](NCCCc1cccc(C(F)(F)F)c1)c1cccc2ccccc12 ?
stdout: YES

stdin: Given CCCCCCCC/C=C\CCCCCCCCOCCO , state the outcome it received in this test.
stdout: YES

stdin: Assay outcome for CCc1cc(SCc2sc(-c3ccc(C(F)(F)F)cc3)nc2CN2CCN(c3ccc(OC)cc3)CC2)ccc1OCC(=O)O : what was it?
stdout: YES

stdin: Given Cc1nc(-c2ccc3c(c2)CCN(CCC2CCC(NC(=O)/C=C/c4ccc(F)cc4)CC2)CC3)no1 (stereo not given) , state the outcome it received in this test.
stdout: NO

----------
test: qHTS assay to identify small molecule antagonists of the estrogen related receptor signaling pathway with the pleiotropic PPARgamma coactivator (PGC) from Tox21 10K library - cell viability counter screen (AID 1224840); conditions: PGC/ERR reporter cells viability, CellTiter-Fluor, 17.5 h; series mostly up to 92.4 µM; further: nearly all actives have a fitted effect of over 40% in size
Records with an inconclusive call do not appear. The source made the active and inactive calls. Calls come from the whole dose curve; as a rule, active = well fitted cell-killing curve with a large enough effect in the repeat runs (not every such curve was filed as active); inconclusive = weak or mixed curves, or effect the other way; inactive = no such curve, though single readings can be large or run the other way.
Outcome (select one): active, inactive

stdin: Tell me the recorded outcome of this test for Clc1ccc2cc3ccccc3cc2c1 .
stdout: inactive

stdin: Assay outcome for OCCN1CCN(CC/C=C2/c3ccccc3Sc3ccc(C(F)(F)F)cc32)CC1 : what was it?
stdout: active

stdin: How was C/C(=C(/OCCOc1ccc(Cl)cc1)c1ccc(Cl)cc1Cl)n1ccnc1 classified in this test?
stdout: inactive

stdin: Recorded test call requested for COc1cccc(N)c1
stdout: inactive

stdin: Recorded call for Cc1c(C)c2c(c(C)c1OC(=O)CCC(=O)O)CC[C@@](C)(CCC[C@H](C)CCC[C@H](C)CCCC(C)C)O2 ?
stdout: inactive

stdin: Call for entry Oc1cccc2cc3cccc(O)c3c(O)c12 :
stdout: inactive

stdin: What classification did CCCCCCCC/C=C\CCCCCCCCOCCO end up with in this test?
stdout: active

stdin: Answer briefly: the call reported for COc1ccc(CN2CCN(C(c3ccc(F)cc3)c3ccc(F)cc3)CC2)c(OC)c1OC in this assay.
stdout: active

stdin: Dear all, I need the recorded test outcome for CC(C)(C)CC(C)(C)c1ccc(OCCOCC[N+](C)(C)Cc2ccccc2)cc1 , thank you.
stdout: active

stdin: Give the logged outcome of this assay for the following molecule: C=C(C)C(=O)OCC(O)COc1ccc(C(C)(C)c2ccc(OCC(O)COC(=O)C(=C)C)cc2)cc1 (stereo not drawn)
stdout: active

stdin: Outcome logged for O=S1(=O)CC(Cl)(Cl)C(Cl)(Cl)C1 in this assay:
stdout: active

stdin: // return assay outcome for CCOC(=O)O[C@]1(C(=O)OCCl)CC[C@H]2[C@@H]3CCC4=CC(=O)C=C[C@]4(C)[C@H]3[C@@H](O)C[C@@]21C
stdout: inactive

stdin: Which outcome was entered for the molecule Oc1c(Cl)cc(Cl)c2cccnc12 in this test?
stdout: active

stdin: Returns: the outcome recorded for CC(C)(C)C(=O)OCOC(=O)[C@@H]1N2C(=O)[C@@H](NC(=O)[C@H](N)c3ccccc3)[C@H]2SC1(C)C in this assay.
stdout: inactive

stdin: Outcome? O=C(O)c1c(Cl)cccc1Cl
stdout: inactive

stdin: I would be grateful if you could indicate the recorded call for Cc1[nH]nc2c1N=C(c1ccccc1Cl)c1cc([N+](=O)[O-])ccc1N2 .
stdout: active

stdin: Assay result, entry Nc1cc(C(F)(F)F)ccc1S — outcome?
stdout: inactive

stdin: // return assay outcome for CCCCCCCC[P+](CCCCCCCC)(CCCCCCCC)CCCCCCCC
stdout: active

stdin: Hi, do you know how CCCCCCCCNC(C)C(O)c1ccc(SC(C)C)cc1 (stereo not drawn) came out in this test?
stdout: active

stdin: // outcome(item) with item = CCCCCOC(=O)CCCC
stdout: inactive

stdin: Hello, I am checking results. What call was entered for CSc1ccc(C(=O)c2[nH]c(=O)[nH]c2C)cc1 ?
stdout: inactive

stdin: # fetch the recorded call for CC(=O)SC[C@@H](Cc1ccccc1)C(=O)NCC(=O)OCc1ccccc1 here
stdout: inactive

stdin: Please share the test call associated with NNc1nc(-c2ccc(N)cc2)cs1 .
stdout: active
